Listing: residual activity of selected molecules
Assay System: NEK3 (human)
Measurement Description: radiometric filter-binding kinase assay, Kinase HotSpot
Settings: compound 0.5 µM; ATP 10 µM
Property Name: residual activity (%)

Molecule	Assay System	Unit Info	Result Value
Nc1nc(Nc2ccc(S(N)(=O)=O)cc2)nn1C(=S)Nc1c(F)cccc1F	NEK3 (human)	%	19.6
Cc1cc2ncc(-c3ccccc3)nc2cc1C	NEK3 (human)	%	93.7
O=c1cc(N2CCNCC2)oc2c(-c3ccccc3)cccc12	NEK3 (human)	%	106
O=C1Nc2cc(Br)ccc2/C1=C1/Nc2ccccc2/C1=N\O	NEK3 (human)	%	84.4

---

Assay System: UniProt P30530
Sequence (P30530 whole entry, looked up): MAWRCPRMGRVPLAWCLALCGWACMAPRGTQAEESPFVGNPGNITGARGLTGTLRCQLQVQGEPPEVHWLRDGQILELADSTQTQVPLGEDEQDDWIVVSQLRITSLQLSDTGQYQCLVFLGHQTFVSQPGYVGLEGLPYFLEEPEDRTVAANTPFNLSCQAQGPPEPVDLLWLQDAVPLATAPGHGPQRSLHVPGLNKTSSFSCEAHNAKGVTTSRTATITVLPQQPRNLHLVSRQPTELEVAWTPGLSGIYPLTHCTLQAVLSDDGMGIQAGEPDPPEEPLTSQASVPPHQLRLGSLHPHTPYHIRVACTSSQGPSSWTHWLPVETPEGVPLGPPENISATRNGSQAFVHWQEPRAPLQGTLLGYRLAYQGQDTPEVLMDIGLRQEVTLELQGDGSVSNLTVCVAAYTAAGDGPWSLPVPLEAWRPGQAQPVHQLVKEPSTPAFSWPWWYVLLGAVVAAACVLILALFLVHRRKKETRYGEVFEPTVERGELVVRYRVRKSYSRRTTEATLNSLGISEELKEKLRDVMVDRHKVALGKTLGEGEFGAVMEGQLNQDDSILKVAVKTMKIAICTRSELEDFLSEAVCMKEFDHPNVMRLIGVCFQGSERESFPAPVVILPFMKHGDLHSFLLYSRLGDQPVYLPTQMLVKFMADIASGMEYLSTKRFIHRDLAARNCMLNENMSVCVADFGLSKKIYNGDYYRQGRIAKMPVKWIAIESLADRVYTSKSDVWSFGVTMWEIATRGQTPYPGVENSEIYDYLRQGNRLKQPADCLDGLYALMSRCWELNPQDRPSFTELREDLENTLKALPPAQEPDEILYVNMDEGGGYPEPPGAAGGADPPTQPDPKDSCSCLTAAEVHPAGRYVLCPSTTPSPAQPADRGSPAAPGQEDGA
Measurement Description: radiometric filter-binding kinase assay, Kinase HotSpot
Settings: compound 0.5 µM; ATP 10 µM
Listing: residual activity of selected molecules

Molecule	Unit Info	residual activity
Nc1nc(Nc2ccc(S(N)(=O)=O)cc2)nn1C(=S)Nc1c(F)cccc1F	%	34.2
Oc1ccc(-c2nc(-c3ccc(F)cc3)c(-c3ccncc3)[nH]2)cc1	%	99.8
NC(=O)c1ccc(N(C(N)=O)c2c(F)cccc2F)nc1-c1ccc(F)cc1F	%	101
COc1cc2nccc(Oc3ccc(NC(=S)NC(=O)c4ccccc4C)cc3)c2cc1OC	%	80.4
